Experiment: MB-102 pig plasma concentration after subcutaneous dosing
Type: in vivo
Conditions: Yorkshire, pig, plasma, subcutaneous, 3.2 mg/kg, pig 52771, SubQ, 3.2 mpk, 105 min; read-out: MB-102 Pig Plasma Conc.
Assay endpoint: concentration at 105 min (ng/mL)
The response must be a number in ng/mL with no trailing unit.

[ask] Return reported concentration at 105 min. Input molecule: Nc1nc(C(=O)N[C@H](CO)C(=O)O)c(N)nc1C(=O)N[C@H](CO)C(=O)O
[reply] 6070

* * *

Test: MB-102 pig plasma concentration after subcutaneous dosing
Format: in vivo
Conditions: Yorkshire, pig, plasma, subcutaneous, 3.2 mg/kg, pig 52771, SubQ, 3.2 mpk, 225 min; read-out: MB-102 Pig Plasma Conc.
Assay endpoint: concentration at 225 min (ng/mL)
Please respond with the number in ng/mL and leave the unit unwritten.

[ask] Indicate its recorded concentration at 225 min; the compound in question is Nc1nc(C(=O)N[C@H](CO)C(=O)O)c(N)nc1C(=O)N[C@H](CO)C(=O)O
[reply] 2500

Taken from patent US20220143222A1.
